Test: Absorption/emission wavelength of the compounds (Table 1)
Assay type: physicochemical
Conditions: DMSO
experimental endpoint: Emission wavelength (nm)

compound	Emission wavelength, nm
CCN1/C(=C/C=C2\CC(C(C)(C)C(=O)OC)CC(/C=C/C3=[N+](CC)c4ccc5cc(S(=O)(=O)O)ccc5c4C3(C)C)=C2Cl)C(C)(C)c2c1ccc1cc(S(=O)(=O)O)ccc21 (stereo not drawn) [Compound D]	861
CCN1/C(=C/C=C2\CCCC(/C=C/C3=[N+](CC)c4ccc5cc(OC)ccc5c4C3(C)C)=C2Sc2ccc(C(=O)NCCN)cc2)C(C)(C)c2c1ccc1cc(OC)ccc21.[I-] [Compound K]	901
CCN1/C(=C/C=C2\CC(C(C)(C)C(=O)OC)CC(/C=C/C3=[N+](CC)c4ccc5cc(OC)ccc5c4C3(C)C)=C2Cl)C(C)(C)c2c1ccc1cc(OC)ccc21.[I-] (stereo not drawn) [Compound F]	881
CCN1/C(=C/C=C2\CC(C(C)(C)C(=O)OC)CC(/C=C/C3=[N+](CC)c4ccc5cc(S(=O)(=O)[O-])ccc5c4C3(C)C)=C2Sc2ccc(C(=O)O)cc2)C(C)(C)c2c1ccc1cc(S(=O)(=O)O)ccc21 (stereo not drawn) [Compound G]	883
CCN1/C(=C/C=C2\CC(C(C)(C)C(=O)OC)CC(/C=C/C3=[N+](CC)c4ccc5cc(Br)ccc5c4C3(C)C)=C2Cl)C(C)(C)c2c1ccc1cc(Br)ccc21.[I-] (stereo not drawn) [Compound E]	865
CCN1/C(=C/C=C2\CC(C(C)(C)C)CC(/C=C/C3=[N+](CC)c4ccc5cc(OC)ccc5c4C3(C)C)=C2Sc2ccc(C(=O)NCCN)cc2)C(C)(C)c2c1ccc1cc(OC)ccc21.[I-] (stereo not drawn) [Compound L]	896
